Would you mind telling me the reported normalized RNA/DNA level with ligand (log10) of each entry?
B1: library; a variant is named by its letters at N, in order (parent)
chain: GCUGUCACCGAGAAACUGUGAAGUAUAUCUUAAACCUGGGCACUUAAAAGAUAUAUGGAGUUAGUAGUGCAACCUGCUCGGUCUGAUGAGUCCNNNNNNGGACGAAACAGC

# Variants of: B1
# assay procedure: normalized RNA/DNA level with ligand (relative to sTRSVctl = 100) (log10 (% of sTRSVctl)); HEK293T; ligand: cyclic di-GMP (c-di-GMP-II aptamer); ligand concentration (+) RNA-Seq: 1 mM; higher = less ribozyme self-cleavage, higher mRNA level
# run parameters: reporter: mCherry (pCS4076), ligand present: yes
Please respond with just the number, no unit label.

Ask: Record request: normalized RNA/DNA level with ligand (log10) value, item GCUGUCACCGAGAAACUGUGAAGUAUAUCUUAAACCUGGGCACUUAAAAGAUAUAUGGAGUUAGUAGUGCAACCUGCUCGGUCUGAUGAGUCCACAAAGGGACGAAACAGC [ACAAAG]
Reply: 1.6

Ask: Look up normalized RNA/DNA level with ligand (log10): GCUGUCACCGAGAAACUGUGAAGUAUAUCUUAAACCUGGGCACUUAAAAGAUAUAUGGAGUUAGUAGUGCAACCUGCUCGGUCUGAUGAGUCCAGAGAAGGACGAAACAGC [AGAGAA]
Reply: 1.54

Ask: Given the entry GCUGUCACCGAGAAACUGUGAAGUAUAUCUUAAACCUGGGCACUUAAAAGAUAUAUGGAGUUAGUAGUGCAACCUGCUCGGUCUGAUGAGUCCGUCCACGGACGAAACAGC [GUCCAC] , report its measured normalized RNA/DNA level with ligand (log10).
Reply: 1.82

Ask: Look up normalized RNA/DNA level with ligand (log10) for this variant: GCUGUCACCGAGAAACUGUGAAGUAUAUCUUAAACCUGGGCACUUAAAAGAUAUAUGGAGUUAGUAGUGCAACCUGCUCGGUCUGAUGAGUCCCUUGCCGGACGAAACAGC [CUUGCC]
Reply: 1.9

Ask: Need normalized RNA/DNA level with ligand (log10), item GCUGUCACCGAGAAACUGUGAAGUAUAUCUUAAACCUGGGCACUUAAAAGAUAUAUGGAGUUAGUAGUGCAACCUGCUCGGUCUGAUGAGUCCAUAAAAGGACGAAACAGC [AUAAAA]
Reply: 1.67

Ask: Any idea what normalized RNA/DNA level with ligand (log10) was measured for GCUGUCACCGAGAAACUGUGAAGUAUAUCUUAAACCUGGGCACUUAAAAGAUAUAUGGAGUUAGUAGUGCAACCUGCUCGGUCUGAUGAGUCCAGUGUAGGACGAAACAGC [AGUGUA] ?
Reply: 1.66

Ask: Can you look up the measured normalized RNA/DNA level with ligand (log10) of GCUGUCACCGAGAAACUGUGAAGUAUAUCUUAAACCUGGGCACUUAAAAGAUAUAUGGAGUUAGUAGUGCAACCUGCUCGGUCUGAUGAGUCCAGGCAUGGACGAAACAGC [AGGCAU] for me?
Reply: 1.83

Ask: GET /values?readout=normalized RNA/DNA level with ligand (log10)&item= GCUGUCACCGAGAAACUGUGAAGUAUAUCUUAAACCUGGGCACUUAAAAGAUAUAUGGAGUUAGUAGUGCAACCUGCUCGGUCUGAUGAGUCCGCAACAGGACGAAACAGC [GCAACA]
Reply: 1.75

Ask: Can you share its normalized RNA/DNA level with ligand (log10)? I mean this variant: GCUGUCACCGAGAAACUGUGAAGUAUAUCUUAAACCUGGGCACUUAAAAGAUAUAUGGAGUUAGUAGUGCAACCUGCUCGGUCUGAUGAGUCCACCUUAGGACGAAACAGC [ACCUUA]
Reply: 1.79

Ask: What normalized RNA/DNA level with ligand (log10) value was documented for this variant, GCUGUCACCGAGAAACUGUGAAGUAUAUCUUAAACCUGGGCACUUAAAAGAUAUAUGGAGUUAGUAGUGCAACCUGCUCGGUCUGAUGAGUCCCUGGGAGGACGAAACAGC [CUGGGA] ?
Reply: 1.74

Ask: I would be grateful if you could share the reported normalized RNA/DNA level with ligand (log10) for GCUGUCACCGAGAAACUGUGAAGUAUAUCUUAAACCUGGGCACUUAAAAGAUAUAUGGAGUUAGUAGUGCAACCUGCUCGGUCUGAUGAGUCCCCAGAAGGACGAAACAGC [CCAGAA] .
Reply: 1.58

Ask: I'd like to know its normalized RNA/DNA level with ligand (log10). The variant in question is GCUGUCACCGAGAAACUGUGAAGUAUAUCUUAAACCUGGGCACUUAAAAGAUAUAUGGAGUUAGUAGUGCAACCUGCUCGGUCUGAUGAGUCCCAAUUAGGACGAAACAGC [CAAUUA]
Reply: 1.53

Ask: Endpoint output: normalized RNA/DNA level with ligand (log10) of GCUGUCACCGAGAAACUGUGAAGUAUAUCUUAAACCUGGGCACUUAAAAGAUAUAUGGAGUUAGUAGUGCAACCUGCUCGGUCUGAUGAGUCCACUCCGGGACGAAACAGC [ACUCCG] . Value?
Reply: 1.83

Ask: Quick one: normalized RNA/DNA level with ligand (log10) for GCUGUCACCGAGAAACUGUGAAGUAUAUCUUAAACCUGGGCACUUAAAAGAUAUAUGGAGUUAGUAGUGCAACCUGCUCGGUCUGAUGAGUCCAGAUCAGGACGAAACAGC [AGAUCA] ?
Reply: 1.74

Ask: Need normalized RNA/DNA level with ligand (log10), item GCUGUCACCGAGAAACUGUGAAGUAUAUCUUAAACCUGGGCACUUAAAAGAUAUAUGGAGUUAGUAGUGCAACCUGCUCGGUCUGAUGAGUCCAAUGCAGGACGAAACAGC [AAUGCA]
Reply: 1.78

Ask: Sample GCUGUCACCGAGAAACUGUGAAGUAUAUCUUAAACCUGGGCACUUAAAAGAUAUAUGGAGUUAGUAGUGCAACCUGCUCGGUCUGAUGAGUCCUCCGUAGGACGAAACAGC [UCCGUA] — what was its normalized RNA/DNA level with ligand (log10)?
Reply: 1.7

Ask: // normalized RNA/DNA level with ligand (log10) lookup, key: GCUGUCACCGAGAAACUGUGAAGUAUAUCUUAAACCUGGGCACUUAAAAGAUAUAUGGAGUUAGUAGUGCAACCUGCUCGGUCUGAUGAGUCCGAACAUGGACGAAACAGC [GAACAU]
Reply: 1.78

Ask: normalized RNA/DNA level with ligand (log10) for GCUGUCACCGAGAAACUGUGAAGUAUAUCUUAAACCUGGGCACUUAAAAGAUAUAUGGAGUUAGUAGUGCAACCUGCUCGGUCUGAUGAGUCCAUUUGAGGACGAAACAGC [AUUUGA] ?
Reply: 1.75

Ask: # input variant: GCUGUCACCGAGAAACUGUGAAGUAUAUCUUAAACCUGGGCACUUAAAAGAUAUAUGGAGUUAGUAGUGCAACCUGCUCGGUCUGAUGAGUCCGUGACGGGACGAAACAGC [GUGACG] ; wanted: its normalized RNA/DNA level with ligand (log10)
Reply: 1.77

Ask: // lookup normalized RNA/DNA level with ligand (log10) for GCUGUCACCGAGAAACUGUGAAGUAUAUCUUAAACCUGGGCACUUAAAAGAUAUAUGGAGUUAGUAGUGCAACCUGCUCGGUCUGAUGAGUCCGGUGUCGGACGAAACAGC [GGUGUC]
Reply: 1.8

Ask: Consider the variant GCUGUCACCGAGAAACUGUGAAGUAUAUCUUAAACCUGGGCACUUAAAAGAUAUAUGGAGUUAGUAGUGCAACCUGCUCGGUCUGAUGAGUCCACCUCUGGACGAAACAGC [ACCUCU] and give its measured normalized RNA/DNA level with ligand (log10).
Reply: 1.87

Ask: Dear colleague, I am looking for the recorded normalized RNA/DNA level with ligand (log10) of the following variant: GCUGUCACCGAGAAACUGUGAAGUAUAUCUUAAACCUGGGCACUUAAAAGAUAUAUGGAGUUAGUAGUGCAACCUGCUCGGUCUGAUGAGUCCAUUCGAGGACGAAACAGC [AUUCGA]
Reply: 1.71
